Test system: ML-2
Conditions: 72 h
IC50 (cell viability) values by entry
Measured attribute: IC50 (cell viability)

[[record]]
compound = "O=C(O)c1cc2sccc2[nH]1 [4H-thieno[3,2-b]pyrrole-5-carboxylic acid]"
observed_value = "> 10 µM"

[[record]]
compound = "C[C@]12CC[C@H](O)CC1=CC[C@@H]1[C@@H]2CC[C@]2(C)C(c3cccnc3)=CC[C@@H]12"
observed_value = "> 10 µM"

[[record]]
compound = "C[C@H]1O[C@@H](O[C@H]2[C@@H](O)C[C@H](O[C@H]3[C@@H](O)C[C@H](O[C@H]4CC[C@@]5(C)[C@H](CC[C@@H]6[C@@H]5C[C@@H](O)[C@]5(C)[C@@H](C7=CC(=O)OC7)CC[C@]65O)C4)O[C@@H]3C)O[C@@H]2C)C[C@H](O)[C@@H]1O"
observed_value = "0.0386 µM"

[[record]]
compound = "O=C(c1ccc(OCCN2CCCCC2)cc1)c1c(-c2ccc(O)cc2)sc2cc(O)ccc12"
observed_value = "> 10 µM"

[[record]]
compound = "CCOc1ccc(Cc2cc([C@@H]3O[C@H](CO)[C@@H](O)[C@H](O)[C@H]3O)ccc2Cl)cc1"
observed_value = "> 10 µM"

[[record]]
compound = "NC(=O)c1ncn([C@@H]2O[C@H](CO)[C@@H](O)[C@H]2O)n1"
observed_value = "> 10 µM"

[[record]]
compound = "CCOC(=O)[C@@]1(CCCCCCOc2ccc(Cl)cc2)CO1"
observed_value = "> 10 µM"

[[record]]
compound = "CC(C(=O)O)C(=O)O [Methylmalonate]"
observed_value = "> 10 µM"

[[record]]
compound = "c1ccc2c(c1)OCC(=C1NCCN1)O2"
observed_value = "> 10 µM"

[[record]]
compound = "Cc1c(-c2ccccc2)oc2c(C(=O)OCCN3CCCCC3)cccc2c1=O.Cl [Flavoxate]"
observed_value = "> 10 µM"

[[record]]
compound = "CCOC(=O)N1c2ccc(C(F)(F)F)cc2[C@@H](N(Cc2cc(C(F)(F)F)cc(C(F)(F)F)c2)C(=O)OC)C[C@H]1CC"
observed_value = "7.83 µM"

[[record]]
compound = "CC(C)C[C@H](NC(=O)[C@@H](O)[C@H](N)Cc1ccccc1)C(=O)O"
observed_value = "> 10 µM"

[[record]]
compound = "CCCc1nn(C)c2c(O)nc(-c3cc(S(=O)(=O)N4CCN(C)CC4)ccc3OCC)nc12"
observed_value = "> 10 µM"

[[record]]
compound = "CCOC(=O)[C@H]1O[C@@H]1C(=O)N[C@@H](CC(C)C)C(=O)NCCC(C)C"
observed_value = "> 10 µM"

[[record]]
compound = "Nc1ncnc2c1ncn2[C@@H]1O[C@H](CSCC[C@H](N)C(=O)O)[C@@H](O)[C@H]1O"
observed_value = "> 10 µM"

[[record]]
compound = "CCN(CC)CCN(Cc1ccc(-c2ccc(C(F)(F)F)cc2)cc1)C(=O)Cn1c(SCc2ccc(F)cc2)nc(=O)c2c1CCC2"
observed_value = "2.62 µM"

